Where do the numbers come from? From patent US8598348B2.

# test-name: Solubility in water
# Type: physicochemical
Counter-ions that a name gives are not always drawn.
parameter: solubility (µg/mL)
Write the value in µg/mL as a bare number.

solubility reading for Cc1ccc(Sc2ccccc2N2CCNCC2)c(C)c1 [beta form of the hydrobromide] : 1200
